target: T1, His6-tagged PSD95 GK domain (a.a. 531-713) (UniProt P31016 531-713); test: fluorescence polarisation; direct titration: 10 nM FITC-SAPAP constant, His-GK 0 to 20 uM; 50 mM Tris, 100 mM NaCl, pH 7.5; 384-well plates, 1-h incubation; conditions: both partners purified
T1 construct: postsynaptic density protein 95 (PSD95, encoded by DLG4), guanylate kinase (GK) domain, a.a; 531-713; In the MST assay the protein was labelled on its His tag with the RED-Tris-NTA kit; The PDB entries are cited crystal structures of PSD95 GK with peptides; also called His-GK; His-PSD95 GK; source: E. coli BL21 (DE3), purified (Ni-NTA, size-exclusion chromatography); not shown: His6, N-terminal, …
T1 sequence (P31016 531-713): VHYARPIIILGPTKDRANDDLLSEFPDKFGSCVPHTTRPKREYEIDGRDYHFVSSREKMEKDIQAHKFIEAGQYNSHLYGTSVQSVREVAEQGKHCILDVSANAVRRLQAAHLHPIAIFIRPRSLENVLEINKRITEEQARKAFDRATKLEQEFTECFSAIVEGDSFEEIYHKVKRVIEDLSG
Non-standard residues stand in square brackets, D forms with d. Primed or numbered codes have the meaning given here. No end group written: not given here. FITC′ = fluorescein isothiocyanate label on the N-terminus; pS = N[C@@H](COP(=O)(O)O)C(=O)O
propertyLabel: Kd (µM)
Use µM as the unit, but write only the number.

For {FITC′}-AARRE[pS]YLKATQ (phosphorylated SAPAP peptide; SAPAP1 (DLGAP1, GKAP) is the member it names elsewhere; also called FITC-SAPAP; FITC-SAPAP probe; source: synthetic peptide, bought: China Peptides) [FITC-labeled SAPAP peptide FITC-AARRE(pS)YLKATQ] , what is its reported Kd?
4.28
